Test system: SR leukemia
Test: NCI-60 one-dose screen, 48 h (100 = growth as untreated, 0 = no growth, -100 = all killed)
Details: 10 µM unless noted
Description: Growth inhibition of the SR human tumor cell line is measured as a screen for anti-cancer activity. Cells are grown in 96 well plates and exposed to the test compound for 48 hours. Compounds are tested at a single concentration, which is 10^-5 M for most compounds. The reported endpoint is percent growth (GI% or GIPRCNT), where numbers from 0 - 100% represent growth inhibition, and numbers from -100% - 0 represent cell death. For example, a value of 40 represents 60% growth inhibition. […]
About 83,000 compounds went through this panel and 20% of them were active in at least one assay; those are over-represented in the sample as a whole.
assayReadout: growth (%)
Give bare numbers, in %.

Recorded growth, per entry:
compound	growth, %
O=C(O)/C=C(\c1nc2ccc([N+](=O)[O-])cc2[nH]1)c1cc(Cl)ccc1O	29.6
CNCc1cccc2c1OCCOCCOCCC(C)S(=O)(=O)c1ccc(cc1)-c1cnc(N)c(n1)C(=O)N2 (configuration not stated)	-19.2

Consider the following items and state reported growth for each.
1. CCCCn1c(C)nc2cc(Nc3nc(Cl)nc4nc[nH]c34)ccc21
2. Cn1nc(C(F)(F)F)cc1-c1c[nH]c(OCc2ccc(Cl)cc2)c(-c2ccc(Cl)c(C(F)(F)F)c2)c1=O
3. Cc1n(Cc2ccc3ccccc3n2)cc[n+]1Cc1ccc2ccccc2c1
4. NC(N)=N/N=C\c1ccc(OCc2ccccc2)cc1
5. CNC(=O)c1cc(Oc2ccc(NC(=O)c3[nH]c(SC)nc3-c3ccc(F)cc3)cc2)ccn1
6. Cc1nc2ccc(Nc3nc(NCCN4CCOCC4)nc(Nc4ccc(F)cc4)n3)cc2n1Cc1ccccc1

**A:**
[66.7, 27.5, 11.6, 75.4, 63.1, 0.147]

Here are 7 compounds. What values of growth were reported for them?
1. CC(=O)[C@H]1CC[C@H]2[C@@H]3CC[C@H]4CC=CC[C@]4(C)[C@H]3CC[C@]12C
2. Cc1cc(C)cc(NC(=O)Cn2nncc2CN2C(=O)CSC2=O)c1
3. OC(c1cc2c(Cl)cc(Cl)cc2c2cc(C(F)(F)F)ccc12)C1CCCCN1 (configuration not stated)
4. Fc1ccc2nc(-c3ccc(-c4noc(-c5ccc(Cl)cc5)n4)cc3)[nH]c2c1
5. COc1ccc(C2C3CCc4ccccc4C3=NN2C(=O)c2cc(OC)c(OC)c(OC)c2)cc1O (configuration not stated)
6. CSC(=S)N/N=C(\C)c1ccccn1
7. COc1ccc(Sc2[nH]c(C=O)c3ccccc23)cc1

**A:**
1: 68.9; 2: 118; 3: -63.5; 4: 95.6; 5: 64.2; 6: -3.68; 7: 16.6

State recorded growth for all listed compounds.
1. CCN(CC)CCCNc1cccc2c(C)cc(OC)nc12
2. CCOC(=O)Nc1ccc2nc(-c3cscn3)[nH]c2c1
3. O=c1[nH]c2cc(Cl)c(Cl)cc2o1
4. N=c1n(Cc2ccccc2)c(N)cc(=O)n1Cc1ccccc1

**A:**
1: 78.3; 2: 23.3; 3: 126; 4: 1.6

Please go through the list and note growth for each compound.
1. CCc1ccc(Nc2cc(C)c3ccc(O)cc3n2)cc1
2. CCN1CCN(Cc2ccc(NC(=O)c3nc4ccc5[nH]ncc5c4c4c3CCCC4)cc2C(F)(F)F)CC1
3. CCCCNCC(O)c1cc2c(Cl)cc(Cl)cc2c2cc(C(F)(F)F)ccc12 (configuration not stated)

**A:**
[43.9, -29.2, -68]
